- Test system: SK-OV-3 ovarian
- protocol.description: NCI-60 one-dose screen, 48 h
- experimental.context: 10 µM
The panel holds about 83,000 compounds, 20% with a hit somewhere; the sample as a whole holds those more often. The source made the active and inactive calls. How the source made its calls: active means growth percent below 10; inactive means the rest.
Possible outcomes: active, inactive

INSERT INTO measurements (molecule, cat) VALUES
  ('C[C@H]1[C@H](C)CC[C@]2(COC(=O)CCC(=O)NCC#CCN3CCNCC3)CC[C@]3(C)C(=CC[C@@H]4[C@@]5(C)CCCNC(C)(C)[C@@H]5CC[C@]43C)[C@H]12', 'inactive'),
  ('CC1(C)CC[C@]23CC[C@]4(C)[C@H](CC[C@@H]5[C@@]6(C)CC[C@H](N)C(C)(C)[C@@H]6CC[C@]54C)[C@H]2[C@H]1OC3=O', 'active'),
  ('CC(C)C1=C[C@@]23CC[C@@H]4[C@](C)(CCC[C@]4(C)C(=O)NCc4ccccc4)[C@H]2C[C@@H]1[C@H]1C(=O)CCC(=O)[C@H]13', 'inactive'),
  ('CC(=O)C1=C(C)NC(SCC(=O)Nc2ccc(S(=O)(=O)Nc3cc(C)on3)cc2)=NC1c1ccccc1 (stereo unspecified)', 'inactive'),
  ('CC1=N/C(=C\c2ccc(N(C)C)cc2)C(=O)N1CCc1ccc(S(N)(=O)=O)cc1', 'inactive'),
  ('Nc1cc(-c2cccc(C(=O)NCc3ccc4c(c3)OCO4)c2)ccn1', 'inactive');

---

- Tested on: BT-549 breast
- protocol.description: NCI-60 one-dose screen, 48 h (100 = growth as untreated, 0 = no growth, -100 = all killed)
- experimental.context: 10 µM
This is part of a sample that, as a whole, favours compounds with a hit. Of some 83,000 tested, about 20% had one in any assay.
measured.quantity: growth (%)

INSERT INTO results (compound, obs_value) VALUES
  ('O=c1[nH][nH]c(Nc2ccccc2)c1N=Nc1ccc(F)cc1', 65.3),
  ('N#Cc1c(-c2ccc(F)cc2)nc(SCc2ccc([N+](=O)[O-])cc2)nc1N1CCOCC1', 58.5),
  ('C=CC(=O)Nc1nc(-c2cccc(NS(=O)(=O)c3cccc4c(N(C)C)cccc34)c2)cs1', -75.6),
  ('CC1(c2ccccc2)NC(=O)N(CC(=O)Nc2ccc(C(=O)/C=C/C=C/c3ccccc3)cc2)C1=O (centres undefined)', 38.9),
  ('CCOC(=O)C1=C(N)N(c2ccc(C)cc2)C2=C(C(=O)CC(C)(C)C2)C1c1ccccc1OC (centres undefined)', 95.7),
  ('O=C(c1ccc(Cl)cc1)C1[C@H](c2ccccc2Br)[C@@H](c2ccccc2)NC12C(=O)Nc1ccc(Cl)cc12 (some centres undefined)', 75.9),
  ('NC(=Nc1ccc(OCCCCCCCCn2ccnn2)cc1)c1ccccc1', 56.6),
  ('O=C(O)CCCCCCCCCCN1C(=O)/C(=C/c2cnc(-c3ccccc3)s2)SC1=S', 106),
  ('O=C(NCCCCC(c1ccc(F)cc1)c1ccc(F)cc1)NCCCc1cccnc1', -16.4);

---

- Tested on: SK-MEL-2 melanoma
- protocol.description: NCI-60 one-dose screen, 48 h
- experimental.context: 10 µM
Compounds without any hit were thinned out: in the full panel of roughly 83,000, 20% have a hit. Activity calls are given as the source filed them. How the source made its calls: active means growth percent below 10; inactive means the rest.
Outcome codes: active, inactive

INSERT INTO assay_data (molecule, cat) VALUES
  ('O=c1cc(-c2ccccc2)oc2cc(OCCCNCc3ccccc3)cc(O)c12', 'active'),
  ('O=C(N/C(=C1/OCCN1Cc1ccccc1)[P+](c1ccccc1)(c1ccccc1)c1ccccc1)c1ccccc1', 'active'),
  ('O=C(Nc1cccc([N+](=O)[O-])c1)Nc1cccc([N+](=O)[O-])c1', 'inactive'),
  ('Cn1cc(-c2cc(N)n3nc(-c4c[nH]c5ccc(Br)cc45)cc3n2)c2cc(Br)cnc21', 'active'),
  ('Cc1ccc2nc3c(nc2c1)c1cc(I)ccc1n3CCN(C)C', 'inactive'),
  ('Cn1c(O)c(N=Nc2nc(-c3cc4ccccc4oc3=O)cs2)c2cc(Br)ccc21', 'inactive'),
  ('Cc1ccc(F)cc1N/C=c1\s/c(=C(\C#N)C(=O)Nc2ccccc2)n(-c2ccccc2)c1=O', 'inactive'),
  ('COc1ccc(/C=C/C(=O)c2ccc(N3CCN(C)CC3)cc2)c(C(F)(F)F)c1', 'inactive'),
  ('COc1ccc(/C=N/N=C(\C)c2ccc3c(c2)Nc2ccccc2S3)cc1O', 'inactive'),
  ('COc1ccc(OC)c(/C=N/NC(=O)c2ccc3nc(-c4ccc(Cl)cc4)[nH]c3c2)c1', 'inactive'),
  ('C=C1CCC2C3(C)COC(c4cccc(F)c4)OC3CCC2(C)C1CC(O)C1=CCOC1=O (centres undefined)', 'inactive'),
  ('COc1ccc(NC(=O)CSc2nnc(-c3ccc4nc(-c5ccc(Cl)cc5)[nH]c4c3)o2)cc1', 'inactive'),
  ('COc1ccc(-c2nc(S(=O)(=O)c3ccc(C)cc3)c(S(C)(=O)=O)o2)cc1', 'active'),
  ('O=C1CCC(N2Cc3c(C#CCCCNC(=O)c4ccc(NC(=O)[C@@H]5NC6(CCCCC6)[C@@]6(C(=O)Nc7cc(Cl)ccc76)[C@H]5c5cccc(Cl)c5F)cc4)cccc3C2=O)C(=O)N1 (some centres undefined)', 'inactive'),
  ('CN1CCN(Cc2ccc(C(=O)Nc3cccc(Nc4ccc5c(O)cccc5n4)c3)cc2C(F)(F)F)CC1', 'active'),
  ('Cc1cccc2cc(-c3cc(-c4ccccc4)nc(=S)[nH]3)c(Cl)nc12', 'inactive'),
  ('CC(=O)C1=C(C)NC(SCC(=O)Nc2ccc(S(=O)(=O)Nc3cc(C)on3)cc2)=NC1c1ccccc1 (centres undefined)', 'inactive'),
  ('O=C1Nc2ccc(Cl)cc2/C1=C/c1ccc(OCc2ccccn2)cc1', 'inactive'),
  ('O=C(c1ccc(Cl)cc1)C1[C@H](c2ccccc2Br)[C@@H](c2ccccc2)NC12C(=O)Nc1ccc(Br)cc12 (some centres undefined)', 'active'),
  ('COc1cc2c(cc1OC)CN(CCCCOc1cc(O)c3c(=O)cc(-c4ccccc4)oc3c1)CC2', 'inactive'),
  ('O=C(Nc1cccc(C(F)(F)F)c1)c1cncc(C#Cc2cnc3cccnn23)c1', 'inactive'),
  ('OCCCNc1oc(-c2ccccc2)nc1[P+](c1ccccc1)(c1ccccc1)c1ccccc1', 'active'),
  ('CO[C@H]1CSS[C@@H]1Cn1nc(-c2ccc(Oc3ccccc3)cc2)c2c(N)ncnc21', 'active'),
  ('CCOc1ccc(/C=N/NC(=O)Cn2nc(Cc3ccccc3)c3onc(C)c3c2=O)cc1', 'active');
